system: Liver microsomes; experiment: Intrinsic clearance in human liver microsomes; assay type: ADME, Microsome
Quantity Measured: CL (mL/min/g)
API: value field is a number in mL/min/g; no unit string.

[
  {
    "Smiles Entry": "O=C1O[C@]2(CC[C@H](c3nc4ccc(OC(F)(F)F)cc4[nH]3)CC2)CN1c1ccccc1Cl",
    "Measurement": 0.5
  },
  {
    "Smiles Entry": "N#Cc1ccc2nc([C@H]3CC[C@]4(CC3)CN(c3ccccc3)C(=O)O4)[nH]c2c1",
    "Measurement": 0.5
  },
  {
    "Smiles Entry": "O=C1OC2(CCN(c3nc4ccccc4[nH]3)CC2)CN1c1ccccc1",
    "Measurement": 9.8
  },
  {
    "Smiles Entry": "N#Cc1ccc2[nH]c([C@H]3CC[C@]4(CC3)CN(c3ccc(F)cc3)C(=O)O4)nc2c1",
    "Measurement": 0.5
  }
]

## Task Return value of CL for input O=C1O[C@]2(CC[C@H](c3nc4cc(C(F)(F)F)ccc4[nH]3)CC2)CN1c1ccccc1 , no commentary.
## Result 0.5

## Task Retrieve CL measured for O=C1OC2(CCN(c3nc4cc(C(F)(F)F)ccc4[nH]3)CC2)CN1c1ccccc1 and print it.
## Result 0.5

## Task Please report the measured CL for O=C1OC2(CCN(c3nc4cc(-c5ccc(F)cc5)ccc4[nH]3)CC2)CN1c1ccccc1
## Result 7

## Task Give the value of CL reported for the following: O=C1O[C@]2(CC[C@H](c3nc4cc(OC(F)(F)F)ccc4[nH]3)CC2)CN1c1ccccn1
## Result 0.5

## Task Answer with the recorded CL for the compound listed here: O=C1OC2(CCN(c3nc4cc(Br)ccc4[nH]3)CC2)CN1c1ccccc1
## Result 2.5

## Task Give CL for the following compound: O=C1OC2(CCN(c3nc4cc(OC(F)(F)F)ccc4[nH]3)CC2)CN1c1ccccc1
## Result 0.5

* * *

tested on: Liver microsomes; assay: Intrinsic clearance in human liver microsomes; format: ADME, Microsome
Quantity Measured: CL
In your response, put the unit directly after the numeric value.

Recorded results for 3 compounds are shown here.
[
  {
    "Smiles Entry": "Cc1ncccc1N1C[C@]2(CC[C@@H](c3nc4ccc(OC(F)(F)F)cc4[nH]3)CC2)OC1=O",
    "Quantity Measured": "CL",
    "Measurement": "0.6 mL/min/g"
  },
  {
    "Smiles Entry": "O=C1O[C@]2(CC[C@H](c3nc4ccc(OC(F)(F)F)cc4[nH]3)CC2)CN1c1ccccc1",
    "Quantity Measured": "CL",
    "Measurement": "0.5 mL/min/g"
  },
  {
    "Smiles Entry": "O=C1OC2(CCN(c3nc4cc(F)ccc4[nH]3)CC2)CN1c1ccccc1",
    "Quantity Measured": "CL",
    "Measurement": "7 mL/min/g"
  }
]

## Task Tell me measured CL for O=C1O[C@]2(CC[C@H](c3nc4cc(OC(F)(F)F)ccc4[nH]3)CC2)CN1c1cccnc1 please.
## Result 0.5 mL/min/g

## Task Using known records, supply CL for O=C1O[C@]2(CC[C@H](c3nc4ccc(OC(F)(F)F)cc4[nH]3)CC2)CN1c1cccc(F)n1
## Result 0.5 mL/min/g

* * *

experiment: Ratio of drug level in brain to blood in rat at 0.5 mg/kg, iv after 1 hr; format: ADME, organism-based; design: dose 0.5 mg/kg, route intravenous
Binary call on Kp at 1 h with cut-off 0.5: strictly below means 1 (yes), and equality or higher means 0 (no).

A selection of reference data follows.
[
  {
    "Smiles Entry": "O=C1O[C@]2(CC[C@H](c3nc4cc(C(F)(F)F)ccc4[nH]3)CC2)CN1c1ccccc1",
    "Class Name": "1 (yes)"
  },
  {
    "Smiles Entry": "O=C1O[C@]2(CC[C@H](c3nc4cc(OC(F)(F)F)ccc4[nH]3)CC2)CN1c1ccccc1F",
    "Class Name": "0 (no)"
  },
  {
    "Smiles Entry": "O=C1OC2(CCN(c3nc4cc(C(F)(F)F)ccc4[nH]3)CC2)CN1c1ccccc1",
    "Class Name": "1 (yes)"
  },
  {
    "Smiles Entry": "O=C1O[C@]2(CC[C@H](c3nc4ccc(OC(F)(F)F)cc4[nH]3)CC2)CN1c1ccccc1",
    "Class Name": "0 (no)"
  },
  {
    "Smiles Entry": "O=C1OC2(CCN(c3nc4cc(OC(F)(F)F)ccc4[nH]3)CC2)CN1c1ccccc1",
    "Class Name": "1 (yes)"
  }
]

## Task Quick check: Kp at 1 h of O=C(Nc1nc(-c2ccccn2)cs1)N1CCC2(CC1)CN(c1ccccc1)C(=O)O2 under 0.5?
## Result 1 (yes)

## Task Input N#Cc1ccc2nc([C@H]3CC[C@]4(CC3)CN(c3ccccc3)C(=O)O4)[nH]c2c1 ; condition: Kp at 1 h strictly below 0.5. Does it hold?
## Result 1 (yes)

* * *

test system: Liver microsomes; test: Intrinsic clearance in human liver microsomes; format: ADME, Microsome
Quantity Measured: CL
Answer with the number, then the unit.

[
  {
    "Smiles Entry": "O=C1O[C@]2(CC[C@H](c3nc4cc(OC(F)(F)F)ccc4[nH]3)CC2)CN1c1ccc(F)cc1",
    "CL": "0.5 mL/min/g"
  },
  {
    "Smiles Entry": "N#Cc1ccc2nc([C@H]3CC[C@]4(CC3)CN(c3ccccn3)C(=O)O4)[nH]c2c1",
    "CL": "15 mL/min/g"
  },
  {
    "Smiles Entry": "O=C(Nc1nc(-c2ccccn2)cs1)N1CCC2(CC1)CN(c1ccccc1)C(=O)O2",
    "CL": "0.6 mL/min/g"
  },
  {
    "Smiles Entry": "Cc1ccccc1N1C[C@]2(CC[C@@H](c3nc4ccc(OC(F)(F)F)cc4[nH]3)CC2)OC1=O",
    "CL": "0.5 mL/min/g"
  },
  {
    "Smiles Entry": "O=C1O[C@]2(CC[C@H](c3nc4cc(C(F)(F)F)ccc4[nH]3)CC2)CN1c1ccccn1",
    "CL": "0.5 mL/min/g"
  }
]

## Task State, for Liver microsomes, measured CL of the compound listed here: Cc1cccc(N2C[C@]3(CC[C@@H](c4nc5ccc(OC(F)(F)F)cc5[nH]4)CC3)OC2=O)n1
## Result 0.6 mL/min/g

## Task Output reported CL of the compound O=C1O[C@]2(CC[C@H](c3nc4cc(OC(F)(F)F)ccc4[nH]3)CC2)CN1c1ccccc1F on Liver microsomes.
## Result 0.5 mL/min/g

Measured values drawn from ChEMBL document CHEMBL1287671 for this set.
